Biological target: Muscarinic acetylcholine receptor (Rattus norvegicus) (UniProt P08482+P08483+P08485+P08911+P10980)
PARAMETER MEASURED: K app (µM)
Respond with the bare value in µM.

The molecule Oc1cncc(C2CN3CCC2CC3)n1 (stereo not drawn) showed K app equal to 27

The recorded K app for entry COc1cncc(C2CN3CCC2CC3)n1 (stereo not drawn) equals 0.14

Record summary for COc1cncc([C@H]2CN3CCC2C3)n1 (stereo partly drawn) : reported K app = 0.96

Entry under test: Cc1ncc([C@H]2CN3CCC2C3)nc1C (stereo partly drawn) . Its K app was 0.28

Measured K app, COc1cncc([C@H]2CN3CCCC2C3)n1 (stereo partly drawn) : 1.2

Memo: Cc1nccnc1C1CN2CCC1CC2 (stereo not drawn) , reported K app: 1.51

Entry under test: C=CCOc1cncc([C@H]2CN3CCC2C3)n1 (stereo partly drawn) . Its K app was 0.23

Recorded K app (molecule Brc1cncc(C2CN3CCC2CC3)n1 (stereo not drawn) ): 0.033

K app measured on CC(C)c1nccnc1C1CN2CCC1C2 (stereo not drawn) = 0.48

Lab book: K app of Clc1cncc(C2CN3CCC2C3)n1 (stereo not drawn) noted as 0.21

// K app value for Cc1cncc([C@@H]2CN3CCC2C3)n1 (stereo partly drawn) : 0.47

The value of K app measured for the molecule Clc1ccc(C2CN3CCC2CC3)nn1 (stereo not drawn) turned out to be 3.5

Lab note: CC(C)Oc1cncc([C@H]2CN3CCC2C3)n1 (stereo partly drawn) gave K app of 0.13

Kindly note the recorded K app for Cc1cnc([C@H]2CN3CCC2C3)c(C)n1 (stereo partly drawn) , which is 0.75

K app measured on C#CCOc1cncc(C2CN3CCC2C3)n1 (stereo not drawn) = 0.15

Lookup result for Cc1nc(C)c([C@H]2CN3CCC2C3)nc1C (stereo partly drawn) ; measured K app: 0.35

The recorded K app for entry Cc1cncc([C@H]2CN3CCC2C3)n1 (stereo partly drawn) equals 0.18

The molecule listed as CCc1cncc(C2CN3CCC2C3)n1 (stereo in doubt; 27b) has a reported K app of 0.15

Entry c1cnc([C@H]2CN3CCCC2C3)cn1 (stereo partly drawn) ; K app = 0.4

For record Cc1nccnc1[C@@H]1CN2CCC1C2 (stereo partly drawn) the listed K app is 5.2

Value of measured K app for the entry Cc1cnc(C)c([C@H]2CN3CCC2C3)n1 (stereo partly drawn) : 0.19

K app recorded for this molecule, CCc1nccnc1[C@@H]1CN2CCC1C2 (stereo partly drawn) , is 2.2

Query CCOc1cncc(C2CN3CCC2CC3)n1 (stereo not drawn) yields K app of 0.019

Recorded K app (molecule c1cnc([C@@H]2CN3CCC2C3)cn1 (stereo partly drawn) ): 1.6

Measured K app of Clc1cncc(C2CN3CCC2CC3)n1 (stereo not drawn) : 0.051

K app for c1ncc(C2CN3CCC2CC3)cn1 (stereo not drawn) is 2.8

K app in this record for C=CCOc1cncc([C@@H]2CN3CCC2C3)n1 (stereo partly drawn) : 0.12

Sample COc1cncc([C@@H]2CN3CCC2C3)n1 (stereo partly drawn) ; K app observed: 0.46

K app measured on c1cnc([C@H]2CN3CCC2C3)cn1 (stereo partly drawn) = 0.059

Please fill in: K app reported for Cc1ncc(C2CN3CCC2CC3)cn1 (stereo not drawn) = 1.5

The reported K app of the molecule Cc1cncc(C2CN3CCC2CC3)n1 (stereo not drawn) was 0.066

Query c1cnc(C2CN3CCC2CC3)cn1 (stereo not drawn) yields K app of 0.27

Data point: Cc1nccnc1[C@H]1CN2CCC1C2 (stereo partly drawn) ; K app = 0.21

The molecule listed as CCc1cncc(C2CN3CCC2C3)n1 (stereo in doubt; 27a) has a reported K app of 0.13

The reported K app of the molecule c1cnc([C@@H]2CN3CCCC2C3)cn1 (stereo partly drawn) was 1.5

Quick note, K app for CC(C)Oc1cncc([C@@H]2CN3CCC2C3)n1 (stereo partly drawn) landed at 0.049

// recorded K app for Cc1ncc([C@@H]2CN3CCC2C3)nc1C (stereo partly drawn) : 0.53

The reported value for CCCc1nccnc1C1CN2CCC1C2 (stereo not drawn) in terms of K app is 0.35

----------
Biological target: Muscarinic acetylcholine receptor (Rattus norvegicus) (UniProt P08482+P08483+P08485+P08911+P10980)
Quick rule: K app of at least 0.01 µM means 1.0, below that means 0.0.

K app >= 0.01 µM for COc1cncc(C2CN3CCC2CC3)n1 (stereo not drawn) ?
0.0

Can Cc1ncc([C@@H]2CN3CCC2C3)nc1C (stereo partly drawn) be said to have K app at or above 0.01 µM?
1.0

Answer whether K app of Cc1nccnc1[C@@H]1CN2CCC1C2 (stereo partly drawn) is greater than or equal to 0.01 µM.
0.0

Quick check: does Cc1cncc([C@@H]2CN3CCC2C3)n1 (stereo partly drawn) have K app greater than or equal to 0.01 µM?
0.0

Reported K app at or above 0.01 µM? C#CCOc1cncc(C2CN3CCC2C3)n1 (stereo not drawn)
0.0

Could you verify whether the entry CCCc1nccnc1C1CN2CCC1C2 (stereo not drawn) shows K app of no less than 0.01 µM?
1.0

# bool: K app of COc1cncc([C@@H]2CN3CCCC2C3)n1 (stereo partly drawn) >= 0.01 µM
0.0

Quick check: does Cc1cnc([C@@H]2CN3CCC2C3)c(C)n1 (stereo partly drawn) have K app greater than or equal to 0.01 µM?
1.0

Would you say CCc1cncc(C2CN3CCC2C3)n1 (stereo in doubt; 27b) shows K app at minimum 0.01 µM?
0.0

Decide: K app of Cc1nccnc1[C@H]1CN2CCC1C2 (stereo partly drawn) >= 0.01 µM?
0.0

Assess whether reported K app for Cc1ncc([C@H]2CN3CCC2C3)nc1C (stereo partly drawn) sits at 0.01 µM or higher.
1.0

Entry C=CCOc1cncc([C@H]2CN3CCC2C3)n1 (stereo partly drawn) : is its K app no less than 0.01 µM?
1.0

----------
Target: Muscarinic acetylcholine receptor (Rattus norvegicus) (UniProt P08482+P08483+P08485+P08911+P10980)
Short version: K app at least 0.02 µM is TRUE, less is FALSE.

Test whether the compound Cc1cnc(C)c([C@H]2CN3CCC2C3)n1 (stereo partly drawn) records K app of 0.02 µM or higher.
FALSE

Does the reported K app for C=CCOc1cncc([C@@H]2CN3CCC2C3)n1 (stereo partly drawn) fall at or above the 0.02 µM mark?
TRUE

Test whether the compound Cc1ncc(C2CN3CCC2CC3)nc1C (stereo not drawn) records K app of 0.02 µM or higher.
FALSE

Please indicate if the recorded K app for Brc1cncc(C2CN3CCC2CC3)n1 (stereo not drawn) meets or exceeds 0.02 µM.
FALSE

Textbook exercise: given the entry c1cnc([C@H]2CN3CCC2C3)cn1 (stereo partly drawn) , state whether its K app is greater than or equal to 0.02 µM.
FALSE

Has Cc1cncc([C@H]2CN3CCC2C3)n1 (stereo partly drawn) a recorded K app greater than or equal to 0.02 µM?
FALSE

Identify whether the reported K app of the following compound is 0.02 µM or greater: CN(C)c1cncc([C@@H]2CN3CCC2C3)n1 (stereo partly drawn)
TRUE

Is the recorded value of K app equal to or greater than 0.02 µM for this compound? COc1cncc([C@@H]2CN3CCC2C3)n1 (stereo partly drawn)
FALSE

# check: K app of c1cnc([C@H]2CN3CCCC2C3)cn1 (stereo partly drawn) is greater than or equal to 0.02 µM
FALSE

Given Cc1cnc(C)c([C@@H]2CN3CCC2C3)n1 (stereo partly drawn) , state whether its K app is at least 0.02 µM.
TRUE

Item COc1cncc([C@H]2CN3CCC2C3)n1 (stereo partly drawn) with K app of 0.02 µM or above?
TRUE

Does COc1cncc([C@H]2CN3CCCC2C3)n1 (stereo partly drawn) have a reported K app of at least 0.02 µM?
TRUE

Decide: K app of c1ncc(C2CN3CCC2CC3)cn1 (stereo not drawn) >= 0.02 µM?
TRUE

For this compound, is measured K app 0.02 µM or higher? Cc1cnc([C@H]2CN3CCC2C3)c(C)n1 (stereo partly drawn)
FALSE

Can CCc1nccnc1[C@@H]1CN2CCC1C2 (stereo partly drawn) be said to have K app at or above 0.02 µM?
TRUE

Is K app for Clc1cncc(C2CN3CCC2C3)n1 (stereo not drawn) at or above 0.02 µM?
FALSE

Is K app at least 0.02 µM? Consider Cc1cncc(C2CN3CCC2CC3)n1 (stereo not drawn)
FALSE

Could you verify whether the entry CC(C)Oc1cncc([C@H]2CN3CCC2C3)n1 (stereo partly drawn) shows K app of no less than 0.02 µM?
TRUE

In plain terms: is recorded K app at least 0.02 µM for CC(C)Oc1cncc([C@@H]2CN3CCC2C3)n1 (stereo partly drawn) ?
FALSE

Please check the record Clc1ccc(C2CN3CCC2CC3)nn1 (stereo not drawn) and state if its K app is at or above 0.02 µM.
TRUE

Is the recorded value of K app equal to or greater than 0.02 µM for this compound? CCc1cncc(C2CN3CCC2C3)n1 (stereo in doubt; 27a)
FALSE

Reported K app reaches at least 0.02 µM for c1cnc([C@@H]2CN3CCCC2C3)cn1 (stereo partly drawn) ?
FALSE
